measurement.description: pKa by UV-visible spectrophotometric titrations
Format: physicochemical
setup.conditions: 0.2 M KCl (ionic strength), T = 25 °C, I = 0.2 M (KCl); read-out: pKa (NquinoliniumH+)
Each entry below carries its reported pKa.

# compound, qualifier.symbol, pKa
data = [
    ("Oc1c(CN2CCCCC2)cc(Cl)c2cccnc12 [Compound 5-Cl-Q-3]", "=", 1.61),
    ("Oc1c(CN2CCOCC2)cc(Cl)c2cccnc12 [Compound 5-Cl-Q-2]", "<", 2),
]

====

Test system: MDCK-B1 cells
measurement.description: MTT viability assay, MDCK-B1 (wild-type Pgp)
Format: cell-based, canine
setup.conditions: IC50 MDCK vs. MDCK-B1, absence of Tariquidar

# compound, SR MDCK-B1
records = [
    ("Oc1c(CN2CCCCC2)ccc2cccnc12", 2.36),
    ("Oc1c(CNCc2ccccc2F)cc(Cl)c2cccnc12", 5.13),
    ("Oc1c(CN2CCOCC2)ccc2cccnc12", 0.76),
    ("Oc1cccc2cccnc12 [Compound Q-1, 8-Hydroxyquinoline]", 0.71),
]

====

# IC50 annotations
Tested on: MES-SA cells
measurement.description: MTT viability assay, MES-SA
Format: cell-based, human
setup.conditions: Homo sapiens, MES-SA; Table 2, value outside brackets; read-out: MES-SA (toxicity, Table 2)

# compound, measured.target, IC50 [µM]
records = [
    ("Oc1c(CN2CCOCC2)ccc2cccnc12 [Compound Q-2, 7-(morpho-lino-methyl)quinolin-8-ol]", "MES-SA cells", 6.97),
    ("Oc1c(CNCc2ccccc2F)ccc2ccccc12 [NC-4]", "MES-SA cells", 44.7),
    ("Oc1c(CN2CCOCC2)ccc2ccccc12 [NC-2, 2-(morpholino-methyl)naphthalen-1-ol]", "MES-SA cells", 422),
    ("Oc1c(CN2CCCCC2)ccc2ccccc12 [NC-3, 2-(piperidin-1-ylmethyl)naphthalen-1-ol]", "MES-SA cells", 140),
    ("Oc1c(CNCc2ccccc2F)cc(Cl)c2cccnc12 [Compound Q-4]", "MES-SA cells", 2.75),
    ("Oc1cccc2cccnc12 [Compound Q-1, 8-Hydroxyquinoline]", "MES-SA cells", 4.19),
    ("Oc1c(CN2CCCCC2)cc(Cl)c2cccnc12 [Compound 5-Cl-Q-3]", "MES-SA cells", 1.3),
    ("Oc1ccc(Cl)c2cccnc12 [Compound 5-Cl-Q-1]", "MES-SA cells", 10.4),
    ("Oc1c(CN2CCCCC2)ccc2cccnc12 [Compound Q-3, 7-(piperidin-1-ylmethyl)quinolin-8-ol]", "MES-SA cells", 4.11),
    ("Oc1c(CN2CCOCC2)cc(Cl)c2cccnc12 [Compound 5-Cl-Q-2]", "MES-SA cells", 1.4),
]

====

Test system: MES-SA/B1 cells
measurement.description: MTT viability assay, MES-SA/B1
Type: cell-based, human
setup.conditions: Homo sapiens, MES-SA, 72 h, MTT 72 h, absence of Tariquidar
The entries below come with measured IC50 values attached.

# molecule, IC50 (µM)
data = [
    ("Oc1c(CNCc2ccccc2F)cc(Cl)c2cccnc12", 0.3),
    ("Oc1c(CN2CCCCC2)ccc2cccnc12", 0.83),
    ("Oc1c(CN2CCOCC2)ccc2cccnc12", 3.12),
    ("Oc1cccc2cccnc12 [Compound Q-1, 8-Hydroxyquinoline]", 3.68),
]
